Readings of pKi for the listed compounds
Target chain: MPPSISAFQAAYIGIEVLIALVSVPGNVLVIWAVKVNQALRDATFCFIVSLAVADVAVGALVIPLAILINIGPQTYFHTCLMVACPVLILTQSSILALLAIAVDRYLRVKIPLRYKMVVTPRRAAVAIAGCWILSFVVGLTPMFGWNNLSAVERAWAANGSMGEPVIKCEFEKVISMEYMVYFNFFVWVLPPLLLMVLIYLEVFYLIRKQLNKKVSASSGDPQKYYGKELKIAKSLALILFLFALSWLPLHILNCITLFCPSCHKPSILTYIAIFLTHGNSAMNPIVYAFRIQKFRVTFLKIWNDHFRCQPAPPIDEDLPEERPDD
pKi: −log10 of the molar value.
observed.property: pKi

compound	observed.result
CCCn1c(=O)c2nc(C3CC4CC3C3OC43)[nH]c2n(CCC)c1=O (stereo in doubt; 8)	9.10
CCCn1c(=O)c2nc(C3CC4CC3C3OC43)[nH]c2n(CCC)c1=O (stereo in doubt; 12)	9.35
